run-description: protein stability index of a GFP-peptide fusion (yeast GPS) (PSI 1-4); higher = more stable; sorted into four equal gates, so the index is relative within each strain
measurement-context: ubr1∆
Quick rule for you: protein stability index at 3 or higher means YES, lower means NO.

Entry VVLSFSGLNADSRILIE [PRE6] : is its protein stability index no less than 3?
YES

Entry VAGGKKALAIFVPVPSL [RPS7A] : is its protein stability index no less than 3?
NO

Entry KNLERLRGEYNDLQSET [SMC4] : is its protein stability index no less than 3?
NO

Continuing:
Entry TEKMEEQLDLLSAILDP [MED11] : is its protein stability index no less than 3?
YES

###

run-description: protein stability index of a GFP-peptide fusion (yeast GPS) (PSI 1-4); higher = more stable; sorted into four equal gates, so the index is relative within each strain
measurement-context: san1∆
# Lookup of reported protein stability index keyed by entry

Look up protein stability index for this sequence: NDLDYDLIADTITNSSS [YML103C/NUP188]
2.99

Continuing:
Look up protein stability index for this sequence: VVNITHHELVPKHIRLS [RPB5]
3.01

Look up protein stability index for this sequence: RLLEKSELPDIYSRDIG [SNF2]
2.96

Look up protein stability index for this sequence: FKGLETPLKARQREMAE [YLR018C/POM34]
2.91

Look up protein stability index for this sequence: GSKQILKTEAANVLDPS [BRR2]
3

Look up protein stability index for this sequence: VKKLEIQQHARYDCSFC [RPL43A]
2.96

Look up protein stability index for this sequence: LSGLSADKPFTRLTAYQ [YML031W/NDC1]
2.95

###

# Lookup of reported protein stability index keyed by entry
run-description: protein stability index of a GFP-peptide fusion (yeast GPS) (PSI 1-4); higher = more stable; sorted into four equal gates, so the index is relative within each strain
measurement-context: san1∆
Kindly provide the number alone.

Look up protein stability index for this sequence: SFTDILKSAIRDEIAKN [RPN12]
3.08

Look up protein stability index for this sequence: AVTHNLYYDEDINVESL [PUP2]
3.05

Look up protein stability index for this sequence: SHISASASPHLAPNMQL [SNF2]
2.93

Look up protein stability index for this sequence: VRRLEAQRNALNDKVRF [RPT6]
2.77

Look up protein stability index for this sequence: FSQTVADNNDLQESINH [ECM29]
3.02

Look up protein stability index for this sequence: SVPLMINAKNIAFASNY [RRP43]
1.27

Look up protein stability index for this sequence: MSAPQAKILSQAPTELE [RPS7A]
2.41

Look up protein stability index for this sequence: FKKQMQTIMKMGPLSNI [SRP54]
3.03

Look up protein stability index for this sequence: TTAVDALQKGLKDLMDL [RPC19]
2.9

Look up protein stability index for this sequence: SKKVTSGVPRLKEILNV [RPO21]
1.55

###

run-description: protein stability index of a GFP-peptide fusion (yeast GPS) (PSI 1-4); higher = more stable; sorted into four equal gates, so the index is relative within each strain
measurement-context: ubr1∆
Quick rule for you: protein stability index at 3 or higher means Condition met, lower means Condition not met.

Entry GEDFMEVDYEDKDNPVD [SRB4] : is its protein stability index no less than 3?
Condition met

Continuing:
Entry IDLEAPVQIVKRITQIT [RPS20] : is its protein stability index no less than 3?
Condition not met

Entry EYEEWQKSVSLLSSESN [YDL116W/NUP84] : is its protein stability index no less than 3?
Condition not met

Entry FFYNISSIHWNNWFSLP [SIN4] : is its protein stability index no less than 3?
Condition not met
